- Test system: Escherichia coli
- assaySummary: in vitro antibacterial evaluation, MIC by broth dilution
- Format: cell-based
- conditionDescription: 18 hours at 35° C.
For each entry below, report its MIC Escherichia coli (GC 4559) value.

Lab book: MIC Escherichia coli (GC 4559) of CC(c1ccccc1)C1NC(=O)CNC(=O)C(CO)NC(=O)C(C(O)C2CN(c3ncccn3)C(=N)N2C2OC(CO)C(O)C(O)C2O)NC(=O)C(C(O)C2CNC(=Nc3ncccn3)N2)NC(=O)C(Cc2ccc(OC3OC(CO)C(OC4OC5COC6(OC5C(O)C4O)C4CC5CC(C4)CC6C5)C(O)C3O)cc2)NC1=O (stereo not shown) noted as >64 µg/mL

The recorded MIC Escherichia coli (GC 4559) for entry CC(c1ccccc1)C1NC(=O)CNC(=O)C(CO)NC(=O)C(C(O)C2CNC(=N)N2C2OC(CO)C(O)C3OC(C)(C)OC32)NC(=O)C(C(O)C2CNC(=N)N2)NC(=O)C(Cc2ccc(OC3OC(CO)C(OC4OC(CO)C(O)C(O)C4O)C4OC(C)(C)OC34)cc2)NC1=O (stereo not shown) equals >128 µg/mL

The compound listed as CC(c1ccccc1)C1NC(=O)CNC(=O)C(CO)NC(=O)C(C(O)C2CNC(=N)N2C2OC(CO)C(O)C(O)C2O)NC(=O)C(C(O)C2CNC(=N)N2)NC(=O)C(Cc2ccc(OC3OC(COC(=O)Cc4ccccc4)C(OC4OC(CO)C(O)C(O)C4O)C(O)C3O)cc2)NC1=O (stereo not shown) [Example 98b] has a reported MIC Escherichia coli (GC 4559) of >128 µg/mL

// MIC Escherichia coli (GC 4559) lookup, compound = CC(c1ccccc1)C1NC(=O)CNC(=O)C(CO)NC(=O)C(C(O)C2CNC(=N)N2C2OC(CO)C(O)C(O)C2O)NC(=O)C(C(O)C2CNC(=N)N2)NC(=O)C(Cc2ccc(OC3OC(CO)C(OC4OC5COC(c6cccc(Oc7cccc(C(F)(F)F)c7)c6)OC5C(O)C4O)C(O)C3O)cc2)NC1=O (stereo not shown) , result: >64 µg/mL
